Measured Relative activity on ATP, pH 4.5 of individual entries
Assay Comment: pH profile of enzymes on 1 mM ATP
Assay type: biochemical
Conditions: 50 mM trisodium citrate/citric acid, 5 mM CaCl2, relative to the highest value
Description: The pH profile of additional enzymes of interest was assayed using 1 mM ATP, in 50 mM trisodium citrate/citric acid buffer with 5 mM CaCl2. Absorbance was read at 620 nm and all values were set relative to the highest one. Commercial potato apyrase was used as reference. […]
Give the figure by itself; no unit, no explanation.

Worked cases, answers included:
* CRC25085: Acid phosphatase (Class A), accession WP_092747651.1, SEQ ID NO:21 (protein, listed as Acinetobacter boissieri) LEQSNSFLQLAQVPDSLAIVPAPPAYNSVDFLRDKAAYDQAKSLVGTERWKVAAEDADLSDANIGKPFSQALGIEISPQNTPITYEILRKLRTDAGNYATKAAKEHYMRLRPFMFFNSHTCTPNDEANLSKNGAYPSGHTTIGWSSALVLAEIRPERQNEILQRGYEYGQSRVICGVHWQSDVDAGRITGSAIVARLHADKAFTKMLEEAKQEIQRKTK | 0.9
* CRC25089: Acid phosphatase (Class A), accession WP_217352265.1, SEQ ID NO:22 (protein, listed as Paraburkholderia bonniea) AGSDGFLTAETAPSSLAILPPPPAENTVAFLNDKANYEIGRSLKNDARVALAASDANCKNINAIFSSAFGREISEEKTPKLYRLLLGVLQDSHDHAMKSAKNHYMRVRPFVMYGDKTCTPEEDNKMKNTGSYPSGHASFGWAAALVLSEINPERTTEILRRGYDFGQSRVVCGAHWQSDVDNGRLMGAAVVADLHNNDKFIKALEAAKAEFKENTPGN | 0.9

Measured Relative activity on ATP, pH 4.5 of CRC25084: Acid phosphatase (Class A), accession WP_088823167.1, SEQ ID NO:20 (protein, listed as Acinetobacter apis) ADSNNSFLQLNQVPDSLKIVPAPPAFNSVDFLRDKAAYDQARSLVGTARWQQAAVDADLSDANIGKSFSEAFGVEISPTNTPVTYEILRKLRTDAGGYATKTAKEHYMRMRPFVFFNSHTCTPNDEASLSKNGAYPSGHTTIGWSSALILAEIRPDRQNEILERGYQYGQSRVICGVHWQSDVDAGRITGSAIVARLHADKDFAKTLEDAKREIQKKIK : 0.9
